# system.under.test: Endonuclease 8-like 1 (Homo sapiens, UniProt Q96FI4)
# Sequence (Q96FI4 whole entry): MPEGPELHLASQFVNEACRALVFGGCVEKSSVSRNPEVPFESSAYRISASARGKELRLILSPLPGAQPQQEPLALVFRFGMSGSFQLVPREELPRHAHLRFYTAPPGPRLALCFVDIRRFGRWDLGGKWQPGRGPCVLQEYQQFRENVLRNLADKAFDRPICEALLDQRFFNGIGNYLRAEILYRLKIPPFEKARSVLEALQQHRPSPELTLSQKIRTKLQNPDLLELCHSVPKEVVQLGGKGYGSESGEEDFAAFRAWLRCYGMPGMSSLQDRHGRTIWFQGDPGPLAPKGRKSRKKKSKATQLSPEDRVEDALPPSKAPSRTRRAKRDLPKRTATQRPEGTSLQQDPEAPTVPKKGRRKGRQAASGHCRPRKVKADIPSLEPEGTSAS
# method.notes: Inhibition of NEIL1 (unknown origin) assessed as effect on DNA lesions per 10^6 DNA bases using FapyAde substrate incubated for 1 hr by GC-MS/MS assay
Active and inactive are the calls of the source. The rule behind the calls is not given here.
outcome.measure: inhibition

{"columns": ["compound", "outcome.measure", "result"],
 "data": [
  ["CC1CCCC/C1=N/NC(=O)c1sc2ccccc2c1Cl (stereo not given)", "inhibition", "inactive"],
  ["O=C(N/N=C/c1ccc(F)cc1)c1sc2ccccc2c1Cl", "inhibition", "inactive"],
  ["O=C(NN=C1CCCCC1)c1ccc(Br)cc1", "inhibition", "inactive"],
  ["NNC(=O)c1sc2cccc(Cl)c2c1Cl", "inhibition", "inactive"],
  ["O=C(NN=C1CCCCC1)c1cc2ccccc2cc1O", "inhibition", "inactive"]
]}

###

Attribute: Activity
# system.under.test: Formamidopyrimidine-DNA glycosylase (Escherichia coli (strain K12)) (UniProt P05523)
# Sequence (whole entry): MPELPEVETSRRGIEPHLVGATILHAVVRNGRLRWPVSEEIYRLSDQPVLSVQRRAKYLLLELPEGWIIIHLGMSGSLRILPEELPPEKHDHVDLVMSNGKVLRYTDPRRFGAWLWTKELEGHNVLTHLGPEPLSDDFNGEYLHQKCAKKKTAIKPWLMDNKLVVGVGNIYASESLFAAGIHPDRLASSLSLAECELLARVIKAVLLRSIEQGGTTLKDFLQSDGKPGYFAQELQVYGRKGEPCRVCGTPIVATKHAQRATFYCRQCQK
# method.notes: Inhibition of Escherichia coli FPG assessed as remaining enzyme activity at 50 uM using 8-oxo-Gua substrate incubated for 10 mins by TAMRA fluorescence-based assay
outcome.measure: Activity (%)

{"columns": ["molecule", "recorded.number"],
 "data": [
  ["Cc1cc(OCC(=O)NN)cc(C)c1Cl", 95],
  ["CCCC/C(C)=N\\NC(=O)c1cccc(Br)c1", 90.9],
  ["CC1CCCC/C1=N/NC(=O)c1sc2ccccc2c1Cl (stereo not given)", 87.3],
  ["O=C(N/N=C/c1ccc(F)cc1)c1sc2ccccc2c1Cl", 81.7],
  ["C=CCC/C(C)=N\\NC(=O)c1cccc(Br)c1", 78.8],
  ["NNC(=O)COc1cccc2ccccc12", 88.5],
  ["O=C(NN=C1CCCCC1)c1ccc(Br)cc1", 91.7],
  ["O=C(NN=C1CCCCC1)c1cc2ccccc2cc1O", 77],
  ["NNC(=O)c1sc2cccc(Cl)c2c1Cl", 91.7],
  ["CC(Oc1cccc(Cl)c1)C(=O)NN (stereo not given)", 90.8]
]}

###

Attribute: Activity
# system.under.test: Endonuclease 8-like 1 (Homo sapiens, UniProt Q96FI4)
# method.notes: Inhibition of NEIL1 (unknown origin) assessed as remaining enzyme activity at 50 uM using Sp/Gh substrate incubated for 40 mins by TAMRA fluorescence-based assay

{"columns": ["molecule", "Activity, %"],
 "data": [
  ["NNC(=O)c1ccncc1", 80.6],
  ["NNC(=O)COc1cccc2ccccc12", 78.7],
  ["C=CCC/C(C)=N\\NC(=O)c1cccc(Br)c1", 93.5],
  ["CC(Oc1cccc(Cl)c1)C(=O)NN (centres undefined)", 95.3],
  ["CC1CCCC/C1=N/NC(=O)c1sc2ccccc2c1Cl (centres undefined)", 82.3],
  ["O=C(CCNNC(=O)c1ccncc1)NCc1ccccc1", 96.4],
  ["Cc1cc(C(=O)NNCc2ccccc2)no1", 93.3],
  ["O=C(NN=C1CCCCC1)c1ccc(Br)cc1", 97.6],
  ["COc1cc(C)c(S(=O)(=O)n2cc(C)nc2-c2ccccc2)cc1C", 100]
]}

###

# system.under.test: Endonuclease III-like protein 1 (Homo sapiens)
# method.notes: Inhibition of NTH1 (unknown origin) assessed as remaining enzyme activity at 50 uM incubated for 40 mins by TAMRA fluorescence-based assay
Attribute: Activity

{"columns": ["compound.structure", "Activity"],
 "data": [
  ["C/C(=N\\NC(=O)c1cc2ccccc2cc1O)c1ccc2c(c1)OCO2", "73%"],
  ["Cc1cc(OCC(=O)NN)cc(C)c1Cl", "75.1%"],
  ["O=C(NN=C1CCCCC1)c1cc2ccccc2cc1O", "83%"]
]}

###

# system.under.test: N-glycosylase/DNA lyase (Homo sapiens, UniProt O15527)
# Sequence (O15527 whole entry): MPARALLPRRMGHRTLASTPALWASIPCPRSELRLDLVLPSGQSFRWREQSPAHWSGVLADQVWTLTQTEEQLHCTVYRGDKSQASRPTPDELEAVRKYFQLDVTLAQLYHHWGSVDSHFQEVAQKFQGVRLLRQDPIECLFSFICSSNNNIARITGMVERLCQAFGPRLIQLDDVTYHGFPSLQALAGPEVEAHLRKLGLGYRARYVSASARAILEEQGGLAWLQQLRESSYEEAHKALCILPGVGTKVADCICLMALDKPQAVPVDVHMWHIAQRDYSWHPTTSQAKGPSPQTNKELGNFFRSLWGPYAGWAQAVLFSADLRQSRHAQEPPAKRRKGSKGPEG
# method.notes: Inhibition of human OGG1 assessed as reduction in free Inhibition of human OGG1 assessed as reduction in free FapyGua release using gamma-irradiated calf thymus DNA substrate incubated for 1 hr by GC-MS/MS assay
Activity calls are given as the source filed them. The rule behind the calls is not given here.
Classes used: active, inactive

{"columns": ["compound.structure", "label.value"],
 "data": [
  ["NNC(=O)c1sc2cccc(Cl)c2c1Cl", "active"],
  ["O=C(NN=C1CCCCC1)c1cc2ccccc2cc1O", "active"],
  ["NNC(=O)c1ccncc1", "inactive"],
  ["Cc1cc(C(=O)NNCc2ccccc2)no1", "inactive"]
]}

###

Record type: IC50 measurement. Applies to: Endonuclease 8-like 1 (Homo sapiens, UniProt Q96FI4)
outcome.measure: IC50

{"columns": ["compound", "outcome.measure", "result"],
 "data": [
  ["CC1CCCC/C1=N/NC(=O)c1sc2ccccc2c1Cl (stereo not drawn)", "IC50", "> 50 µM"],
  ["O=C(NN=C1CCCCC1)c1ccc(Br)cc1", "IC50", "> 50 µM"],
  ["O=C(NN=C1CCCCC1)c1cc2ccccc2cc1O", "IC50", "> 50 µM"]
]}

###

Attribute: Activity
# system.under.test: Endonuclease III-like protein 1 (Homo sapiens) (UniProt P78549)
# Sequence (P78549 whole entry): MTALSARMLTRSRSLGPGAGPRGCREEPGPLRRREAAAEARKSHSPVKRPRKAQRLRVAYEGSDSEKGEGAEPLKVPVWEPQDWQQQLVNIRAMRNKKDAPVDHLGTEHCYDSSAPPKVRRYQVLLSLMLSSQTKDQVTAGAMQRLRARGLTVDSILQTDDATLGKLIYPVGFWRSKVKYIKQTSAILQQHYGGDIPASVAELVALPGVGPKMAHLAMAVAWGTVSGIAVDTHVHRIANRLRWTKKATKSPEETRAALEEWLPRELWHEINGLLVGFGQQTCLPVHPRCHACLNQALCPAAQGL
# method.notes: Inhibition of NTH1 (unknown origin) assessed as remaining enzyme activity at 50 uM incubated for 40 mins by TAMRA fluorescence-based assay

{"columns": ["compound", "u", "Activity"],
 "data": [
  ["CC(Oc1cccc(Cl)c1)C(=O)NN (stereo not given)", "%", 100],
  ["CCCC/C(C)=N\\NC(=O)c1cccc(Br)c1", "%", 92.6],
  ["O=C(NN=C1CCCCC1)c1ccc(Br)cc1", "%", 84.5],
  ["Cc1cc(C(=O)NNCc2ccccc2)no1", "%", 105],
  ["C=CCC/C(C)=N\\NC(=O)c1cccc(Br)c1", "%", 90.6]
]}

Where these numbers come from: ChEMBL document CHEMBL4421727
